Tested on: NCI-N87
method-description: Cell growth inhibition assay (CellTiter-Glo), stomach cancer cell line NCI-N87
Assay type: cell-based
study-conditions: Homo sapiens; NCI-N87 cells, 96 hours
attribute-measured: IC50 (µM)

Solved entries:
COc1cc(Cl)cc(Oc2cc(NC(=O)c3cc4cc5c(cc4s3)OCCC5S(C)(=O)=O)cc(Cl)n2)c1 (centres unmarked) :: 0.025
C[C@@]1(S(C)(=O)=O)CCOc2cc3sc(C(=O)Nc4cc(Cl)nc(Oc5ccc(Cl)cc5)c4)cc3cc21 :: 0.79
CS(=O)(=O)C1CCOc2cc3sc(C(=O)Nc4cc(Cl)nc(Oc5ccc(Cl)cc5)c4)cc3cc21 (racemic) :: 0.031
CS(=O)(=O)C1CCOc2cc3sc(C(=O)Nc4cc(Cl)nc(Oc5ccc(Cl)cc5F)c4)cc3cc21 (centres unmarked) :: 0.0056
COc1cc(Cl)ccc1Oc1cc(NC(=O)c2cc3cc4c(cc3s2)OCCC4S(C)(=O)=O)cc(Cl)n1 (centres unmarked) :: 0.024

P: CS(=O)(=O)C1CCOc2cc3sc(C(=O)Nc4cc(Cl)nc(Oc5ccc(Cl)c(Cl)c5)c4)cc3cc21 (centres unmarked)
Q: C[C@]1(S(C)(=O)=O)CCOc2cc3sc(C(=O)Nc4cc(Cl)nc(Oc5ccc(Cl)cc5)c4)cc3cc21
Exercise: Identify the entry with the larger IC50. Options: P and Q Lab note: record the label of whichever item you select.
Solution: Q

A: Cc1cc(Cl)ccc1Oc1cc(NC(=O)c2cc3cc4c(cc3s2)OCCC4S(C)(=O)=O)cc(Cl)n1 (centres unmarked)
B: CS(=O)(=O)[C@]1(F)CCOc2cc3sc(C(=O)Nc4cc(Cl)nc(Oc5ccc(Cl)cc5)c4)cc3cc21
C: [N-]=[N+]=NC1CCOc2cc3sc(C(=O)Nc4cc(Cl)nc(Oc5ccc(Cl)cc5)c4)cc3cc21 (centres unmarked)
Exercise: Arrange these compounds by their IC50, starting with the largest number. Answer by listing the labels in the order asked for.
Solution: C, B, A

1: CS(=O)(=O)C1CCOc2cc3sc(C(=O)Nc4cc(Cl)nc(Oc5ccccc5OC(F)(F)F)c4)cc3cc21 (centres unmarked)
2: CC1(C)CCN(S(C)(=O)=O)c2cc3cc(C(=O)Nc4cc(Cl)nc(Oc5ccc(Cl)cc5)c4)sc3cc21
Exercise: I'd appreciate it if you could identify which of 1 and 2 has the greater IC50. Identify your selection by its label.
Solution: 2

1: CS(=O)(=O)C1CCOc2cc3sc(C(=O)Nc4cc(Cl)nc(Oc5ccc(F)c(F)c5)c4)cc3cc21 (centres unmarked)
2: CS(=O)(=O)[C@@]1(F)CCOc2cc3sc(C(=O)Nc4cc(Cl)nc(Oc5ccc(Cl)cc5)c4)cc3cc21
Exercise: Form: Entry with minimum IC50 (choose one): 1 / 2 Write down the label of the entry you select.
Solution: 2
